system: COLO 205 colon; assay: NCI tumour cell line growth inhibition, 48 h
readout_kind: TGI

>  <compound>
CCCCc1ccc(Nc2nc(=S)c3ncn(COCCO)c3[nH]2)cc1

>  <readout_kind>
TGI

>  <value>
44.5 µM

$$$$
>  <compound>
CN(C(=O)c1ccccc1)C1CCCC(=O)CC1 (stereo not drawn)

>  <readout_kind>
TGI

>  <value>
> 100 µM

$$$$
>  <compound>
CC1=CC2CCC1(C)C/C2=C(/C)OC=O (stereo not drawn)

>  <readout_kind>
TGI

>  <value>
> 100 µM

$$$$
>  <compound>
CCN(CC)c1ccc(/C=C2\SC(=O)C(Nc3nnc(-c4cccnc4SCc4ccccc4)o3)C2=O)cc1 (stereo not drawn)

>  <readout_kind>
TGI

>  <value>
4.65 µM

$$$$
>  <compound>
CCCNC(=O)C(C)(Cl)C(=O)c1ccccc1O (stereo not drawn)

>  <readout_kind>
TGI

>  <value>
> 100 µM

$$$$
>  <compound>
c1ccc2cc(CN3CCC(C4CCN(Cc5ccc6ccccc6c5)CC4)CC3)ccc2c1

>  <readout_kind>
TGI

>  <value>
3.96 µM

$$$$
>  <compound>
O=C(C[Si](CC(=O)c1cccc(C(F)(F)F)c1)CC(=O)c1cccc(C(F)(F)F)c1)c1cccc(C(F)(F)F)c1

>  <readout_kind>
TGI

>  <value>
3.07 µM

$$$$
>  <compound>
Cc1ccc(O)c(N=Nc2ccc(S(=O)(=O)O)cc2)n1

>  <readout_kind>
TGI

>  <value>
> 100 µM

$$$$
>  <compound>
CCOC(=O)C(NC(=O)CC(C)C)(NC(C)C)C(F)(F)F (stereo not drawn)

>  <readout_kind>
TGI

>  <value>
> 100 µM

$$$$
>  <compound>
COc1ccc(S(=O)(=O)Nc2cc(/C=C\c3cc(OC)c(OC)c(OC)c3)cc(OC)c2OC)cc1

>  <readout_kind>
TGI

>  <value>
0.0459 µM

$$$$
>  <compound>
CCOP(=O)(OCC)/C(C#N)=C/c1cnc(C)[nH]1

>  <readout_kind>
TGI

>  <value>
> 100 µM

$$$$
>  <compound>
COc1ccc(C2C=C(c3ccccc3)Nc3nnnn32)cc1 (stereo not drawn)

>  <readout_kind>
TGI

>  <value>
> 100 µM

$$$$
>  <compound>
NC(CSS(=O)(=O)c1ccccc1)C(=O)O (stereo not drawn)

>  <readout_kind>
TGI

>  <value>
> 10 µM

$$$$

====

system: NCI/ADR-RES ovarian; test: NCI tumour cell line growth inhibition, 48 h

>  <compound>
CCCCc1ccc(Nc2nc(=S)c3ncn(COCCO)c3[nH]2)cc1

>  <TGI>
> 100 µM

$$$$
>  <compound>
S=C1NCN2CCN(CC2)CNC(=S)C(=S)NCN2CCN(CC2)CNC1=S

>  <TGI>
> 100 µM

$$$$
>  <compound>
Cc1cc(C)c2cc(N)c(Cl)nc2n1

>  <TGI>
> 100 µM

$$$$
>  <compound>
CC(=O)OC/C=C(\C)CCC(Br)C(C)(C)Br (stereo unspecified)

>  <TGI>
> 10 µM

$$$$
>  <compound>
COc1ccc(CCn2nccc2C)cc1

>  <TGI>
> 100 µM

$$$$
>  <compound>
Cc1cc(-c2no[n+]([O-])c2-c2cc(C)sc2S(C)(=O)=O)c(S(C)(=O)=O)s1

>  <TGI>
> 100 µM

$$$$

====

test system: NCI-H460 lung; assay: NCI tumour cell line growth inhibition, 48 h
Below, each of the compounds is paired with its reported TGI value.
readout_kind: TGI

>  <compound>
CC1(CO)OC(n2cnc3cncnc32)CC1O (stereo unspecified)

>  <value>
> 100 µM

$$$$
>  <compound>
Cc1cc(C)c(OC(=O)Nc2cccc3ccccc23)c(-c2ccccc2)c1

>  <value>
> 100 µM

$$$$
>  <compound>
CCCCCCc1nn2c(-c3ccncc3)nnc2s1

>  <value>
> 10 µM

$$$$
>  <compound>
NC(=O)N/N=C\c1ccccc1OCc1cccc(COc2ccccc2/C=N\NC(N)=O)n1

>  <value>
> 100 µM

$$$$
>  <compound>
COC(=O)C12CCC(C(F)(F)C1=O)C2(C)C (stereo unspecified)

>  <value>
> 100 µM

$$$$
>  <compound>
COC(=O)C1CC2C=CC1N(C(=O)OCc1ccccc1)C2 (stereo unspecified)

>  <value>
> 100 µM

$$$$

====

test system: NCI-H226 lung; test: NCI tumour cell line growth inhibition, 48 h
readout_kind: TGI (µM)

>  <compound>
CN(C)CCNc1ccc(NCCN(C)C)c2c1C(=O)c1ncsc1C2=O

>  <readout_kind>
TGI

>  <operator_symbol>
=

>  <value>
17.7

$$$$
>  <compound>
S=C1NCN2CCN(CC2)CNC(=S)C(=S)NCN2CCN(CC2)CNC1=S

>  <readout_kind>
TGI

>  <operator_symbol>
>

>  <value>
100

$$$$
>  <compound>
Cc1c(C(=O)O)n(-c2ccc(Cl)cc2)c2ncnc(N)c12

>  <readout_kind>
TGI

>  <operator_symbol>
=

>  <value>
50.2

$$$$
>  <compound>
Cc1ccc(C2=C(c3ccc(C)cc3)C3(c4ccc(C)cc4)[C@@H](C#N)[C@H](C#N)C2(c2ccc(C)cc2)S3=O)cc1 (some centres undefined)

>  <readout_kind>
TGI

>  <operator_symbol>
>

>  <value>
100

$$$$

====

tested on: PC-3 prostate; assay: NCI tumour cell line growth inhibition, 48 h
Below, each of the compounds is paired with its reported TGI value.
readout_kind: TGI

>  <compound>
CCN(CC)c1ccc(/C=C2\SC(=O)C(Nc3nnc(-c4cccnc4SCc4ccccc4)o3)C2=O)cc1 (configuration not stated)

>  <readout_kind>
TGI

>  <value>
> 100 µM

$$$$
>  <compound>
Clc1ccc(/C=C2\CCCC3C2=Nc2ccccc2NC3c2ccc(Cl)cc2)cc1 (configuration not stated)

>  <readout_kind>
TGI

>  <value>
> 41.5 µM

$$$$
>  <compound>
Cc1cc(-c2no[n+]([O-])c2-c2cc(C)sc2S(C)(=O)=O)c(S(C)(=O)=O)s1

>  <readout_kind>
TGI

>  <value>
> 100 µM

$$$$
>  <compound>
Cn1cnc([N+](=O)[O-])c1[Se]c1ncnc2nc[nH]c12

>  <readout_kind>
TGI

>  <value>
> 100 µM

$$$$
>  <compound>
CCC1=C(c2ccc(OC)cc2)CC[C@@]2(CCNC2=O)[C@@H]1C

>  <readout_kind>
TGI

>  <value>
> 100 µM

$$$$
>  <compound>
Cc1ccc2nc(NC(=O)C(=O)C3C(=O)NC(=S)NC3=O)sc2c1

>  <readout_kind>
TGI

>  <value>
> 100 µM

$$$$
>  <compound>
Cc1cc(C)c(OC(=O)Nc2cccc3ccccc23)c(-c2ccccc2)c1

>  <readout_kind>
TGI

>  <value>
> 100 µM

$$$$
>  <compound>
CC(=O)c1cc2c(c(O)c1C)C(=O)C(=O)c1c(O)cccc1-2

>  <readout_kind>
TGI

>  <value>
2.03 µM

$$$$
>  <compound>
CC1=NN(c2nc(N)nc(/C(C#N)=C\C3COc4ccccc4C3=O)n2)C(C)(C)C1 (configuration not stated)

>  <readout_kind>
TGI

>  <value>
77.7 µM

$$$$
>  <compound>
COc1ccc(/C=C/C(=O)c2cccc(B(O)O)c2)cc1O

>  <readout_kind>
TGI

>  <value>
32.9 µM

$$$$
>  <compound>
COc1ccc(/C=C2/N=C(N/N=C\C(O)C(O)C(O)C(O)CO)NC2=O)cc1 (configuration not stated)

>  <readout_kind>
TGI

>  <value>
> 100 µM

$$$$
>  <compound>
O=C(N=C1N(c2ccccc2)C(=O)C(=O)N1c1ccccc1)c1ccccc1

>  <readout_kind>
TGI

>  <value>
50.6 µM

$$$$
>  <compound>
CC(=O)SSC1(Cl)C(C)(C)C(Cl)(SSC(C)=O)C1(C)C (configuration not stated)

>  <readout_kind>
TGI

>  <value>
> 100 µM

$$$$
>  <compound>
CN1CCc2c(sc3ncn(N)c(=N)c23)C1

>  <readout_kind>
TGI

>  <value>
> 100 µM

$$$$
>  <compound>
Cc1cccc(C)c1NC(=O)/C(Cc1nc2ccc([N+](=O)[O-])cc2[nH]c1=O)=N\NC(N)=O

>  <readout_kind>
TGI

>  <value>
> 100 µM

$$$$
>  <compound>
O=C(O)c1cc(-c2ccc3c(O)ccc(O)c3c2)ccc1O

>  <readout_kind>
TGI

>  <value>
26.3 µM

$$$$
>  <compound>
CC(C)c1cc(C(F)(F)F)nc(NNc2nc(C(C)C)cc(C(F)(F)F)n2)n1

>  <readout_kind>
TGI

>  <value>
> 100 µM

$$$$
>  <compound>
O=C1OCC2=C1C(c1cccc(Cl)c1)c1cc3c(cc1N2CCO)OCO3 (configuration not stated)

>  <readout_kind>
TGI

>  <value>
> 43.7 µM

$$$$
>  <compound>
CCOC(=O)c1cc2c(c3ccsc13)C1(C)CCC3c4ccc(OC)cc4CCC3C1C2 (configuration not stated)

>  <readout_kind>
TGI

>  <value>
> 100 µM

$$$$
>  <compound>
CN1CCN(CCn2c3c4ccccc4ccc3c3oc(=O)c4ccccc4c32)CC1

>  <readout_kind>
TGI

>  <value>
4.59 µM

$$$$
>  <compound>
Cn1cc(C2=C(c3cn(CCSC(=N)N)c4ccccc34)C(=O)NC2=O)c2ccccc21

>  <readout_kind>
TGI

>  <value>
8.4 µM

$$$$
>  <compound>
Cn1ccnc1Sc1ccc(/C=N/NC(=O)c2ccccc2[N+](=O)[O-])cc1[N+](=O)[O-]

>  <readout_kind>
TGI

>  <value>
> 100 µM

$$$$
>  <compound>
CCOC(=O)/C=C/C1=C(c2csc3ccccc23)c2ccccc2CC1

>  <readout_kind>
TGI

>  <value>
> 100 µM

$$$$
>  <compound>
C/C=N\n1c(C)n[nH]c1=O

>  <readout_kind>
TGI

>  <value>
> 100 µM

$$$$
>  <compound>
Cc1ccc(C2=C(c3ccc(C)cc3)C3(c4ccc(C)cc4)[C@@H](C#N)[C@H](C#N)C2(c2ccc(C)cc2)S3=O)cc1 (some centres not stated)

>  <readout_kind>
TGI

>  <value>
> 100 µM

$$$$
>  <compound>
Cc1c(C(=O)O)n(-c2ccc(Cl)cc2)c2ncnc(N)c12

>  <readout_kind>
TGI

>  <value>
54.6 µM

$$$$
>  <compound>
O=C(O)C1CCCN1C(=O)c1cc(Cl)ccn1 (configuration not stated)

>  <readout_kind>
TGI

>  <value>
> 100 µM

$$$$
>  <compound>
CCN(CC)c1ccc2cc(-c3nc(-c4ccccc4)n[nH]3)c(=O)oc2c1

>  <readout_kind>
TGI

>  <value>
70.1 µM

$$$$
>  <compound>
COC(=O)C1CC2C=CC1N(C(=O)OCc1ccccc1)C2 (configuration not stated)

>  <readout_kind>
TGI

>  <value>
> 100 µM

$$$$
>  <compound>
COc1ccc2c(c1)C(=O)c1c-2n(CCCNCCO)c(=O)c2ccccc12

>  <readout_kind>
TGI

>  <value>
2.29 µM

$$$$
>  <compound>
CC(=O)OC[C@]1(C)C=C2C(=O)[C@](C)(O)C3(CC3)C(C)=C2[C@H]1OC(=O)N(C)CCN(C)C(=O)OC(C)(C)C

>  <readout_kind>
TGI

>  <value>
6.51 µM

$$$$
>  <compound>
CN(C)CCCN1c2ccccc2CCc2cccc([N+](=O)[O-])c21

>  <readout_kind>
TGI

>  <value>
34.5 µM

$$$$
